test system: C. glabrata; assay: Checkerboard FIC assay in combination with fluconazole (MIC alone and in combination, FICI); assay type: cell-based, Candida glabrata; conditions: C. glabrata; FICI calculated using a fluconazole MIC of 16 μg/mL
TEST READOUT: FICI of combination resulting in fluconazole MIC of: 8 ug/mL

Some entries whose results are on file:
>>> numeric_readout("COCCOCCOCC(=O)Nc1cccc(CCCCc2ccc(CC(=O)NO)cc2)c1 [Example 40]")
0.375
>>> numeric_readout("O=C(Cc1ccc(CCCCc2ccc(C(=O)N3CCN(C/C=C/c4ccccc4)CC3)cc2)cc1)NO [Example 20]")
0.500
>>> numeric_readout("O=C(Cc1ccc(CCCCc2ccc(NC(=O)CO)cc2)cc1)NO [Example 36]")
0.625
>>> numeric_readout("CN1CCN(CCS(=O)(=O)Nc2cccc(CCCCc3ccc(CC(=O)NO)cc3)c2)CC1 [Example 54]")
0.313
>>> numeric_readout("CN1CCC(C(=O)Nc2cccc(CCCCc3ccc(CC(=O)NO)cc3)c2)CC1 [Example 43]")
0.313

P: CN(C)CCSCC(=O)Nc1cccc(CCCCc2ccc(CC(=O)NO)cc2)c1 [Example 44]
Q: O=C(Cc1cnc(CCCCc2ccccc2)s1)NO [Example 2]
(Q) Which has the higher FICI of combination resulting in fluconazole MIC of: 8 ug/mL, P or Q ? # reply format: chosen label
(A) Q

====

tested on: C. glabrata; experiment: Checkerboard FIC assay in combination with fluconazole (MIC alone and in combination, FICI); assay type: cell-based, Candida glabrata; conditions: C. glabrata; FICI calculated using a fluconazole MIC of 16 μg/mL
TEST READOUT: FICI of combination resulting in fluconazole MIC of: 4 ug/mL

>>> numeric_readout("O=C(Cc1ccc(CCCCc2ccc(NC(=O)NCCN3CCOCC3)cc2)cc1)NO")
0.375

I: O=C(Cc1ccc(CCCCc2ccc(F)cc2F)cc1)NO
II: COCCOCCOCCNC(=O)c1ccc(CCCCc2ccc(CC(=O)NO)cc2)cc1
(Q) Which has the higher FICI of combination resulting in fluconazole MIC of: 4 ug/mL, I or II ? # reply format: chosen label
(A) I
(I: 0.625, II: 0.375)

====

test system: C. glabrata; test: Checkerboard FIC assay in combination with fluconazole (MIC alone and in combination, FICI); format: cell-based, Candida glabrata; conditions: Nakaseomyces glabratus; MIC of the example compound alone against C. glabrata in the checkerboard assay, approximately 48 hr; read-out: Methylgene MIC
TEST READOUT: MIC (mg/L)

Some entries whose results are on file:
>>> numeric_readout("O=C(Cc1ccc(CCCC(=O)c2ccccc2)cc1)NO")
16
>>> numeric_readout("CN1CCC(C(=O)Nc2ccc(CCCCc3ccc(CC(=O)NO)cc3)cc2)CC1.Cl")
8
>>> numeric_readout("O=C(Cc1ccc(CCCCc2ccc(NC(=O)CO)cc2)cc1)NO")
16
>>> numeric_readout("O=C(Cc1ccc(CCCCc2ccc(NC(=O)NCCN3CCOCC3)cc2)cc1)NO")
16
>>> numeric_readout("O=C(Cc1ccc(CCCCc2cccc(NS(=O)(=O)CCN3CCOCC3)c2)cc1)NO")
16
>>> numeric_readout("COCCOCCOCC(=O)Nc1ccc(CCCCc2ccc(CC(=O)NO)cc2)cc1")
4
>>> numeric_readout("COCCOCCOCCNS(=O)(=O)c1ccc(CCCCc2ccc(CC(=O)NO)cc2)cc1")
16

I: O=C(Cc1ccc(C(F)CCCc2ccccc2)cc1)NO (centres unmarked)
II: O=C(Cc1ccc(CCCC(F)(F)c2ccccc2)cc1)NO
III: O=C(Cc1cnc(CCCCc2ccccc2)s1)NO
IV: Nc1cccc(CCCCc2ccc(CC(=O)NO)cc2)c1
V: O=C(Cc1csc(CCCCc2ccccc2)n1)NO
(Q) Reorder: MIC, max to min. Could you list the labels in the order requested?
(A) III, V, I, IV, II

====

test system: Candida glabrata; experiment: Minimal Inhibitory Concentration (MIC) assay, broth microdilution per CLSI; format: cell-based; settings: Nakaseomyces glabratus; 48 hr reading (second value of cell 24 hr/48 hr); read-out: Minimum Inhibitory Concentrations against Yeast Isolates, Candida glabrata;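 further: two read times 24 hr and 48 hr of incubation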
TEST READOUT: MIC (µg/mL)

Some entries whose results are on file:
>>> numeric_readout("O=C(Cc1ccc(CCCCc2ccc(C(=O)O)cc2)cc1)NO")
64
>>> numeric_readout("CN1CCC(C(=O)Nc2cccc(CCCCc3ccc(CC(=O)NO)cc3)c2)CC1")
64
>>> numeric_readout("CC[C@H](C)C[C@H](C)CCCCCCCCC(=O)N[C@H]1C[C@@H](O)[C@@H](NCCN)NC(=O)[C@@H]2[C@@H](O)CCN2C(=O)[C@H]([C@H](O)CCN)NC(=O)[C@H]([C@H](O)[C@@H](O)c2ccc(O)cc2)NC(=O)[C@@H]2C[C@@H](O)CN2C(=O)[C@H]([C@@H](C)O)NC1=O [Caspofungin, reference compound]")
0.12
>>> numeric_readout("CN(C)CCSCC(=O)Nc1ccc(CCCCc2ccc(CC(=O)NO)cc2)cc1")
16
>>> numeric_readout("O=C(Cc1ccc(CCCCc2ccc(C(=O)N3CCN(CCn4ccnc4)CC3)cc2)cc1)NO")
32
>>> numeric_readout("O=C(Cc1ccc(CCCCc2ccc(NS(=O)(=O)CCN3CCOCC3)cc2)cc1)NO")
16
>>> numeric_readout("COCCOCCOCCNS(=O)(=O)c1ccc(CCCCc2ccc(CC(=O)NO)cc2)cc1")
16
>>> numeric_readout("O=C(Cc1ccc(CCCC(=O)c2ccccc2)cc1)NO")
16
>>> numeric_readout("O=C(Cc1ccc(CCCCc2ccc(C(=O)N3CCOCCOCCOCCOCCOCC3)cc2)cc1)NO")
64
>>> numeric_readout("O=C(Cc1ccc(CCCCc2ccccc2)o1)NO")
32

I: CC(=O)Nc1cccc(CCCCc2ccc(CC(=O)NO)cc2)c1
II: O=C(Cc1ccc(CCCCc2ccc(C(=O)N3CCN(C/C=C/c4ccccc4)CC3)cc2)cc1)NO
(Q) Between I and II , which one has the lower reported MIC value? # reply format: chosen label
(A) II

====

test system: C. glabrata; assay: Checkerboard FIC assay in combination with fluconazole (MIC alone and in combination, FICI); assay type: cell-based, Candida glabrata; conditions: C. glabrata; FICI calculated using a fluconazole MIC of 16 μg/mL
TEST READOUT: FICI of combination resulting in fluconazole MIC of: 4 ug/mL

Some entries whose results are on file:
>>> numeric_readout("O=C(Cc1ccc(CCCCc2ccc(C(=O)N3CCOCCOCCOCCOCCOCC3)cc2)cc1)NO [Example 24]")
0.250
>>> numeric_readout("CC(CCCc1ccc(CC(=O)NO)cc1)c1ccccc1 (stereo not drawn) [Example 30]")
0.365
>>> numeric_readout("Nc1cccc(CCCCc2ccc(CC(=O)NO)cc2)c1 [Example 32]")
0.500
>>> numeric_readout("COCCOCCOCC(=O)Nc1ccc(CCCCc2ccc(CC(=O)NO)cc2)cc1 [Example 35]")
0.500
>>> numeric_readout("Cn1ccc2cc(CCCCc3ccc(CC(=O)NO)cc3)ccc21 [Example 6]")
0.245
>>> numeric_readout("O=C(Cc1ccc(CCCCc2ccc(O)c(O)c2)cc1)NO [Example 19]")
0.375

1: COc1ccc(CCCCc2ccc(CC(=O)NO)cc2)cc1 [Example 9]
2: O=C(Cc1ccc(CCCC(F)c2ccccc2)cc1)NO (stereo not drawn) [Example 26]
(Q) Which has the higher FICI of combination resulting in fluconazole MIC of: 4 ug/mL, 1 or 2 ? # reply format: chosen label
(A) 1
(1: 0.490, 2: 0.250)

====

system: C. glabrata; experiment: Checkerboard FIC assay in combination with fluconazole (MIC alone and in combination, FICI); assay type: cell-based, Candida glabrata; details: concentration in combination as multiple of the compound's MIC alone; fluconazole MIC 2 ug/mL
TEST READOUT: Multiple of compound MIC to synergize fluconazole MIC to 2 ug/mL

Some entries whose results are on file:
>>> result("Cn1ccc2cc(CCCCc3ccc(CC(=O)NO)cc3)ccc21")
"(¼x)"
>>> result("O=C(Cc1ccc(CCCCC2CCCCC2)cc1)NO")
"(½x)"
>>> result("CC(C)(C(=O)NO)c1ccc(CCCCc2ccccc2)cc1")
"(½x)"
>>> result("O=C(Cc1ccc(CCCC(=O)c2ccccc2)cc1)NO")
"(¼x)"

Next molecule, please.
(Q) Record request: Multiple of compound MIC to synergize fluconazole MIC to 2 ug/mL value, item O=C(Cc1ccc(CCCCc2ccc(C(=O)N3CCN(CCn4ccnc4)CC3)cc2)cc1)NO
(A) (¼x)

====

tested on: C. glabrata; assay: Checkerboard FIC assay in combination with fluconazole (MIC alone and in combination, FICI); assay type: cell-based, Candida glabrata; details: concentration in combination as multiple of the compound's MIC alone; fluconazole MIC 8 ug/mL
TEST READOUT: Multiple of compound MIC to synergize fluconazole MIC to 8 ug/mL

>>> result("O=C(Cc1ccc(CCC(F)Cc2ccccc2)cc1)NO (centres unmarked)")
"(¼x)"
>>> result("CC(C)(C(=O)NO)c1ccc(CCCCc2ccccc2)cc1")
"(¼x)"
>>> result("O=C(Cc1cnc(CCCCc2ccccc2)s1)NO")
"(⅛x)"
>>> result("O=C(Cc1ccc(CCCCc2ccc(O)cc2)cc1)NO")
"(⅛x)"
>>> result("O=C(Cc1ccc(CCCCC2CCCCC2)cc1)NO")
"(½x)"
>>> result("COCCOCCOCCOCCOCCOc1ccc(CCCCc2ccc(CC(=O)NO)cc2)cc1")
"(⅛x)"

(Q) Record request: Multiple of compound MIC to synergize fluconazole MIC to 8 ug/mL value, item O=C(Cc1ccc(CCCCc2ccc(C(=O)NCCCn3ccnc3)cc2)cc1)NO
(A) ( 1/16x)

(Q) Record request: Multiple of compound MIC to synergize fluconazole MIC to 8 ug/mL value, item Cn1ccc2cc(CCCCc3ccc(CC(=O)NO)cc3)ccc21
(A) (⅛x)

(Q) Record request: Multiple of compound MIC to synergize fluconazole MIC to 8 ug/mL value, item CC(=O)Nc1ccc(CCCCc2ccc(CC(=O)NO)cc2)cc1
(A) ( 1/16x)

(Q) Record request: Multiple of compound MIC to synergize fluconazole MIC to 8 ug/mL value, item O=C(Cc1ccc(CCCCc2ccc(C(=O)N3CCN(C/C=C/c4ccccc4)CC3)cc2)cc1)NO
(A) (¼x)

(Q) Record request: Multiple of compound MIC to synergize fluconazole MIC to 8 ug/mL value, item Nc1ccc(CCCCc2ccc(CC(=O)NO)cc2)cc1
(A) (⅛x)

(Q) Record request: Multiple of compound MIC to synergize fluconazole MIC to 8 ug/mL value, item COc1ccc(CCCCc2ccc(CC(=O)NO)cc2)cc1
(A) (⅛x)

(Q) Record request: Multiple of compound MIC to synergize fluconazole MIC to 8 ug/mL value, item COCCOCCOCC(=O)Nc1ccc(CCCCc2ccc(CC(=O)NO)cc2)cc1
(A) (⅛x)

(Q) Record request: Multiple of compound MIC to synergize fluconazole MIC to 8 ug/mL value, item O=C(Cc1ccc(CCCC(=O)c2ccccc2)cc1)NO
(A) ( 1/16x)
